molecular target: UniProt Q13627
pKd: −log10 of the molar value.
# pKd per entry
readout.name: pKd

>>> observed_measurement("Cc1nc2ccc(-c3ccnc(N)c3)nc2n1-c1cccc(CN2CCOCC2)c1")
"7.00 to 9.30"
>>> observed_measurement("Cc1cc(-c2ccc3ncc(-c4ccc(CN5CCCC(F)(F)C5)cc4)n3n2)ccn1")
"6.30 to 7.00"
>>> observed_measurement("OC1CCCN(Cc2ccc(-c3cnc4ccc(-c5ccncc5)nn34)cc2)C1 (centres unmarked)")
"6.30 to 7.00"
>>> observed_measurement("Cc1nc2ccc(-c3ccnc(N)c3)nc2n1-c1ccnc(N2CCOCC2)c1")
"7.00 to 9.30"
>>> observed_measurement("Cc1nc2ccc(-c3ccncc3)nc2n1-c1ccc(CN2CCOCC2)nc1")
"6.30 to 7.00"
>>> observed_measurement("N#Cc1cnccc1-c1ccc2ncc(-c3ccc(CN4CCOCC4)cc3)n2n1")
"5.00 to 6.30"
>>> observed_measurement("Cc1nc2ccc(-c3ccnc(N)c3)nc2n1-c1ccc(N2CCOC[C@@H]2C)c(F)c1")
"7.00 to 9.30"
>>> observed_measurement("Cc1nc2ncc(-c3ccncc3)nc2n1-c1ccc(N2CCOCC2)cc1")
"5.00 to 6.30"
